Test system: DU-145
Experiment: Potency index, ratio of silibinin IC50 to compound IC50 for human DU145 cells
Type: functional
Exercise: for every item that follows, state its recorded Ratio IC50.
Write the number on its own, no unit after it.

Ask | Fill in reported Ratio IC50 for this entry: CCCCCCCOc1c(-c2ccc3c(c2)OC(c2ccc(O)c(OC)c2)C(CO)O3)oc2cc(O)cc(O)c2c1=O (centres undefined)
Reply | 5

Ask | Fill in Ratio IC50 for record CCCCOc1c(-c2ccc3c(c2)OC(c2ccc(O)c(OC)c2)C(CO)O3)oc2cc(O)cc(O)c2c1=O (centres undefined)
Reply | 7

Ask | Given the compound CCCOc1c(-c2ccc3c(c2)OC(c2ccc(O)c(OC)c2)C(CO)O3)oc2cc(O)cc(O)c2c1=O (centres undefined) , write its reported Ratio IC50.
Reply | 8

Ask | Given the compound CCCCCCOc1c(-c2ccc3c(c2)OC(c2ccc(O)c(OC)c2)C(CO)O3)oc2cc(O)cc(O)c2c1=O (centres undefined) , write its reported Ratio IC50.
Reply | 4

Ask | Dear colleague, please send me the reported Ratio IC50 for CCCCCOc1c(-c2ccc3c(c2)OC(c2ccc(O)c(OC)c2)C(CO)O3)oc2cc(O)cc(O)c2c1=O (centres undefined) when you can.
Reply | 7

Ask | Answer with the recorded Ratio IC50 of COc1cc(C2Oc3cc(-c4oc5cc(O)cc(O)c5c(=O)c4OC)ccc3OC2CO)ccc1O (centres undefined) only.
Reply | 4

Ask | Check the records and state Ratio IC50 for COc1cc(C2Oc3cc(-c4oc5cc(O)cc(O)c5c(=O)c4OCc4ccccc4)ccc3OC2CO)ccc1O (centres undefined)
Reply | 6

Ask | Provide only the value of recorded Ratio IC50 for COc1cc(C2Oc3cc(-c4oc5cc(O)cc(O)c5c(=O)c4O)ccc3OC2CO)ccc1O (centres undefined) [DEHYDROSILYLBIN]
Reply | 8

Ask | Give a short answer stating reported Ratio IC50 for CCOc1c(-c2ccc3c(c2)OC(c2ccc(O)c(OC)c2)C(CO)O3)oc2cc(O)cc(O)c2c1=O (centres undefined) .
Reply | 6
